MIC values, listed per item
- System: Pseudomonas aeruginosa
- assaySummary: Antimicrobial activity against polymyxin resistant Pseudomonas aeruginosa FADDI-PA060 assessed as microbial growth inhibition measured at 18 to 20 hrs by broth microdilution assay
- Type: functional
- setupConditions: time 18-20 hrs
Positions of bridges follow the written chain, without caps; N, C: chain ends. Non-standard residues stand in square brackets, D forms with d. Residues, ends and D or L forms follow the SMILES beside them. *: point of attachment. Bip = N[C@@H](Cc1ccc(-c2ccccc2)cc1)C(=O)O; dGly(nOct) = CCCCCCCC[C@@H](N)C(=O)O; Octanoyl = CCCCCCCC(=O)*; Dab = NCC[C@H](N)C(=O)O; Bn = c1ccc(C*)cc1
endpoint: MIC (µg/mL)

INSERT INTO assay_data (compound, endpoint, assayresult) VALUES
  ('CCCCCCCC(=O)N[C@@H](CCN)C(=O)N[C@H](C(=O)N[C@@H](CCN)C(=O)N[C@H]1CCNC(=O)[C@H]([C@@H](C)O)NC(=O)[C@H](CCN)NC(=O)[C@H](CCN)NC(=O)[C@H](CSCc2ccccc2)NC(=O)[C@@H](Cc2ccccc2)NC(=O)[C@H](CCN)NC1=O)[C@@H](C)O (Octanoyl-[Dab]T[Dab][Dab][Dab][dF]C(Bn)[Dab][Dab]T; lactam 4-C)', 'MIC', 32),
  ('CCCCCCCC[C@H]1NC(=O)[C@H](CCN)NC(=O)[C@@H](NC(=O)[C@H](CCN)NC(=O)[C@@H](NC(=O)[C@H](CCN)NC(=O)CCCCCCC)[C@@H](C)O)CCNC(=O)[C@H]([C@@H](C)O)NC(=O)[C@H](CCN)NC(=O)[C@H](CCN)NC(=O)[C@H](CC(C)C)NC1=O (Octanoyl-[Dab]T[Dab][Dab][Dab][dGly(nOct)]L[Dab][Dab]T; lactam 4-C)', 'MIC', 2),
  ('CCCCCCCC(=O)N[C@@H](CCN)C(=O)N[C@H](C(=O)N[C@@H](CCN)C(=O)N[C@H]1CCNC(=O)[C@H]([C@@H](C)O)NC(=O)[C@H](CCN)NC(=O)[C@H](CCN)NC(=O)[C@H](Cc2ccc(-c3ccccc3)cc2)NC(=O)[C@@H](Cc2ccccc2)NC(=O)[C@H](CCN)NC1=O)[C@@H](C)O (Octanoyl-[Dab]T[Dab][Dab][Dab][dF][Bip][Dab][Dab]T; lactam 4-C)', 'MIC', 8),
  ('CCCCCCCC[C@H]1NC(=O)[C@H](CCN)NC(=O)[C@@H](NC(=O)[C@H](CCN)NC(=O)[C@@H](NC(=O)[C@H](CCN)NC(=O)c2ccccc2)[C@@H](C)O)CCNC(=O)[C@H]([C@@H](C)O)NC(=O)[C@H](CCN)NC(=O)[C@H](CCN)NC(=O)[C@H](CC(C)C)NC1=O', 'MIC', 32);

---

- Tested on: Pseudomonas aeruginosa
- assaySummary: Antimicrobial activity against polymyxin resistant Pseudomonas aeruginosa FADDI-PA060 assessed as microbial growth inhibition measured at 18 to 20 hrs by broth microdilution assay
- Format: functional
- setupConditions: time 18-20 hrs
Positions of bridges follow the written chain, without caps; N, C: chain ends. Non-standard residues stand in square brackets, D forms with d. Residues, ends and D or L forms follow the SMILES beside them. *: point of attachment. Benzoyl(4-Ph) = O=C(c1ccc(-c2ccccc2)cc1)*; Bip = N[C@@H](Cc1ccc(-c2ccccc2)cc1)C(=O)O; Gly(octyl) = CCCCCCCC[C@H](N)C(=O)O; Octanoyl = CCCCCCCC(=O)*; Dab = NCC[C@H](N)C(=O)O
endpoint: MIC (µg/mL)

INSERT INTO measurements (molecule, studysystem, assayresult) VALUES
  ('C[C@@H](O)[C@@H]1NC(=O)[C@H](CCN)NC(=O)[C@H](CCN)NC(=O)[C@H](Cc2ccc(-c3ccccc3)cc2)NC(=O)[C@@H](Cc2ccccc2)NC(=O)[C@H](CCN)NC(=O)[C@@H](NC(=O)[C@H](CCN)NC(=O)[C@@H](NC(=O)[C@H](CCN)NC(=O)c2ccc(-c3ccccc3)cc2)[C@@H](C)O)CCNC1=O ({Benzoyl(4-Ph)}-[Dab]T[Dab][Dab][Dab][dF][Bip][Dab][Dab]T; lactam 4-C)', 'Pseudomonas aeruginosa', 8),
  ('CCCCCCCC[C@@H]1NC(=O)[C@@H](Cc2ccccc2)NC(=O)[C@H](CCN)NC(=O)[C@@H](NC(=O)[C@H](CCN)NC(=O)[C@@H](NC(=O)[C@H](CCN)NC(=O)CCCCCCC)[C@@H](C)O)CCNC(=O)[C@H]([C@@H](C)O)NC(=O)[C@H](CCN)NC(=O)[C@H](CCN)NC1=O (Octanoyl-[Dab]T[Dab][Dab][Dab][dF][Gly(octyl)][Dab][Dab]T; lactam 4-C)', 'Pseudomonas aeruginosa', 2);
